molecular target: Sodium-dependent noradrenaline transporter (Homo sapiens)
Sequence (P23975 whole entry): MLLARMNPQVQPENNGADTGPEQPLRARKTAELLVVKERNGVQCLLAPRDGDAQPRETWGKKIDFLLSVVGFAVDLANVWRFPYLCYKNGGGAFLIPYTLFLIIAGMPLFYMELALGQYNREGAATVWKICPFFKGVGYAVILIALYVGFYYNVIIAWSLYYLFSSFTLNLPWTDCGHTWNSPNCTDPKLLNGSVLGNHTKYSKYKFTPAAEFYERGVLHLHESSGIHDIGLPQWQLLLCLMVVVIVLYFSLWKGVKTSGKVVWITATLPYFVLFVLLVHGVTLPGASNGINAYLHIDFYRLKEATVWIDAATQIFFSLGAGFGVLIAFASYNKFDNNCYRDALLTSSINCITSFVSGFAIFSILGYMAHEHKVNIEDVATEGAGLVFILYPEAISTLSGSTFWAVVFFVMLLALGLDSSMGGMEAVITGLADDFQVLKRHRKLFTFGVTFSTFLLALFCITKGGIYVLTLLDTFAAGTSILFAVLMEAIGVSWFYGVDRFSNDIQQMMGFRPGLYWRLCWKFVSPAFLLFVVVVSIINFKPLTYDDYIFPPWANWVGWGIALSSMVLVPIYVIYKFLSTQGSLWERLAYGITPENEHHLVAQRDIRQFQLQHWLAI
Ki reference
The figure you give is taken to be in nM; do not add the unit.

Examples from the recorded data:
Item smiles | Units text | Ki
Fc1ccccc1Oc1ccccc1OC1CCNCC1 | nM | 1000
Fc1cccc(Cl)c1Oc1cccc(F)c1OC1CNC1 | nM | 138

Now turn to the next compound.
q: Give the reported value of Ki for this record: "Cc1cccc(F)c1Oc1cccc(F)c1OC1CNC1"
a: 116

###

pEC50 reference
target: UniProt P08908; assay: Agonist activity at 5HT1A receptor by GTPgammaS binding assay
Sequence (P08908 whole entry): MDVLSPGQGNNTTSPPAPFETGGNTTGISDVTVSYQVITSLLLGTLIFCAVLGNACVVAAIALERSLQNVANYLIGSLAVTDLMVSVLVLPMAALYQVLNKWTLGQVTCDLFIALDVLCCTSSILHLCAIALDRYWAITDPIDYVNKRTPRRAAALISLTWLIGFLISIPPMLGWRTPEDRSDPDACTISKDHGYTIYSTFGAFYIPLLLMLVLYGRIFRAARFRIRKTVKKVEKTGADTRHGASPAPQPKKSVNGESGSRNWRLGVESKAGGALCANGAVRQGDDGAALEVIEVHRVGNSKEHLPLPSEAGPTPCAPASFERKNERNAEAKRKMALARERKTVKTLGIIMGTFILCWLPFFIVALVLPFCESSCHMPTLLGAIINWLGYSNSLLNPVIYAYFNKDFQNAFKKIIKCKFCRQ
Please express pEC50 as -log10 of the molar concentration.

Item smiles | Measured target | pEC50
Fc1cccc(Cl)c1Oc1cccc(F)c1OC1CNC1 | UniProt P08908 | 6.71

q: Give the reported value of pEC50 for this record: "Cc1cccc(F)c1Oc1cccc(F)c1OC1CNC1"
a: 6.65
